Test: amyloid nucleation score (Sup35N fusion, yeast selection) (log enrichment); library NNK2; higher = more nucleation; inactive = no reads after selection;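 note: zero at mode of non-aggregating sequences after 7 days selection at 30°C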
Below, each entry is listed alongside its reported amyloid nucleation score.
Just the number.

Known results for substances:
In [3]: df
Out[3]:
              substance  measured_number
0  INFTYMGVMIFLSLLRQTWG           -0.311
1  PEFITEFQALASFEYVMLRF            -1.23
2  YLNCDSFMRSVVYFNLWDIG            -1.57
3      SCPGLGNRIPDTVKYT            0.969
4  HFIFVAYRWVSNNAELDLNF           -0.724
5            TTGRWVVLRG            0.342
6           LKNYSGLMPVI             3.41
7  TTFILNMMLYNSCTYVYMSL             8.55

**Query** Form field: reported amyloid nucleation score of CMFWSHYTIRFSSWWLGGCE
**Result** -0.149

**Query** Form field: reported amyloid nucleation score of PRSVVPYR
**Result** 0.5

**Query** Form field: reported amyloid nucleation score of LFIRSIRPMDVVGVTLSAVE
**Result** 0.764

----------
Experiment: amyloid nucleation score (Sup35N fusion, yeast selection) (log enrichment); library NNK3; higher = more nucleation; inactive = no reads after selection
PROPERTY MEASURED: amyloid nucleation score

Known results for substances:
              substance    result
0  DGAVFRFNMGHYKYSLVEVM  inactive
1  CLALSGIIIFELKAYLGSWC      1.27
2  MTWNTGLYSRGRHGFYGFST      1.26
3  LDSIPSMSTVLLMSASGCND  inactive

**Query** Form field: reported amyloid nucleation score of LANSKLDCLSVHLFEHNCLA
**Result** 1.95

**Query** Form field: reported amyloid nucleation score of ANGLWKRIAFEGTARCEGMG
**Result** inactive

**Query** Form field: reported amyloid nucleation score of KVCFCSLL
**Result** 2.94

----------
Assay: amyloid nucleation score (Sup35N fusion, yeast selection) (log enrichment); library NNK3; higher = more nucleation; inactive = no reads after selection
PROPERTY MEASURED: amyloid nucleation score

Known results for substances:
>>> print(df.to_string())
              substance    result
0        GVNDRGDENGVVGA  inactive
1  GVLQLNVIVTYFVMDMCSWL      1.78
2          SVNIMVMTVMNY      1.81
3         VVWDGMQIGSWPQ  inactive
4  LSISYSIGGDGDMIGNAACV  inactive

Now turn to the next substance.
**Query** Form field: reported amyloid nucleation score of FDPYFVFHNWVLYWFRVFTF
**Result** inactive

----------
Assay: amyloid nucleation score (Sup35N fusion, yeast selection) (log enrichment); library NNK1; higher = more nucleation; inactive = no reads after selection
Label y for high-side amyloid nucleation score (at or above -0.04) and n for low-side amyloid nucleation score (below it).

These recorded examples may help you get a feel for the data.
              substance  discrete_label
0  FQNELCKTDIWFRVREWESE               y
1               LVEVNWI               n
2  FWIDLGMTLGTCRSFLSLRS               y
3        SDWGGVMVDRGSGW               y

**Query** Does the substance VADFSL have recorded amyloid nucleation score that is -0.04 or more?
**Result** y

**Query** Does the substance SYILCHWTFGDKGRFPQNYR have recorded amyloid nucleation score that is -0.04 or more?
**Result** y

**Query** Does the substance CSVRAVGILRWAFFGEHPLN have recorded amyloid nucleation score that is -0.04 or more?
**Result** n

----------
Assay: amyloid nucleation score (Sup35N fusion, yeast selection) (log enrichment); library NNK3; higher = more nucleation; inactive = no reads after selection
PROPERTY MEASURED: amyloid nucleation score

>>> df
              substance    result
0  LNGASADRRDWAEWLKADHC  inactive
1  VVMACGFLGKRGDSGCLLVM  inactive
2  CGPFGFMCDAVGSAQFDIMM  inactive
3  AYSYRGHGLGMDGAGPVCLI  inactive
4  FSVPLVCDIYCLYTDVEYRH      2.53

**Query** Form field: reported amyloid nucleation score of TGSVVYLKRDVPAIFKFLLV
**Result** inactive

**Query** Form field: reported amyloid nucleation score of ASFYWECMYVHGDVFLCVWY
**Result** 1.79

**Query** Form field: reported amyloid nucleation score of VGAYYGMFNSLMSFLQWISQ
**Result** 0.733

**Query** Form field: reported amyloid nucleation score of GSFYCLYFVGDVIIILTCLR
**Result** inactive

**Query** Form field: reported amyloid nucleation score of NKVVAKHGFGVRSFKIWGLD
**Result** inactive

----------
Assay: amyloid nucleation score (Sup35N fusion, yeast selection) (log enrichment); library NNK1; higher = more nucleation; inactive = no reads after selection
Label 1 for high-side amyloid nucleation score (at or above 0.7) and 0 for low-side amyloid nucleation score (below it).

These recorded examples may help you get a feel for the data.
In [3]: df
Out[3]:
              substance  discrete_label
0  LFTRIFSLSMYVPNCFRYAY               1
1  LCGDAPREDYSHGYVLNQVG               0
2  LARCRWLVKRVCDGNWCCML               0
3  TLYIYAMEDSGGFEDGGMCI               1
4   YSLGVPSPRKILNVFGGTW               0

Now for another entry.
**Query** Does the substance FNDFSLSYARFCINSMNRYP have recorded amyloid nucleation score that is 0.7 or more?
**Result** 1

----------
Experiment: amyloid nucleation score (Sup35N fusion, yeast selection) (log enrichment); library NNK1; higher = more nucleation; inactive = no reads after selection
PROPERTY MEASURED: amyloid nucleation score
Just the number.

In [3]: df
Out[3]:
              substance         property_measured  measured_number
0  RFRVCCNRSKRGGYGPNVER  amyloid nucleation score           -0.363
1  MSSLIVYLRDAPRVLNLYVR  amyloid nucleation score              2.5
2           GTTSVSAINGR  amyloid nucleation score           -0.545
3  IFGTHFGTCFSGHAEEDTGE  amyloid nucleation score            0.724
4  FVLLRIRHRFFWGSCLNPFQ  amyloid nucleation score             1.12
5  GWIGCHDWGLRLIAHKMRGR  amyloid nucleation score            0.938
6  HMNRVSGVMVVLSRGLAGMN  amyloid nucleation score             2.67
7               IGYSGYY  amyloid nucleation score           -0.296
8    NAYLKVIYQRSFGAPNRH  amyloid nucleation score             -0.1
9  DLDKRMVSYDFKICGYKINF  amyloid nucleation score             3.77

**Query** Form field: reported amyloid nucleation score of AYVRGCLFILPFRPTQV
**Result** 1.42

**Query** Form field: reported amyloid nucleation score of LNCLFLFSISAFRVLASHIM
**Result** 0.448

----------
Assay: amyloid nucleation score (Sup35N fusion, yeast selection) (log enrichment); library NNK3; higher = more nucleation; inactive = no reads after selection
PROPERTY MEASURED: amyloid nucleation score

In [3]: df
Out[3]:
              substance    result
0            VGMGLAKDVR  inactive
1  QWILHNFTVGARPGPVRTKE  inactive
2               CAVYFLR  inactive
3       WVLDQRNSLSKCKLG  inactive
4  AWISGHVRVKLSFRLTFFLK  inactive
5  AKSKSIRERLVVFEASQTRY  inactive
6  SLGSCTMFSFSIFWISVQSV      1.34
7    RRLPPIRCSHNLNSVPQD  inactive
8  LTICAFVVYVFIYKYKMGVM  inactive
9  ALDIDWFYWYRHQSSPSFFY  inactive

**Query** Form field: reported amyloid nucleation score of FLIPQGERSVLCMGCYFLYA
**Result** 1.85

**Query** Form field: reported amyloid nucleation score of VIVLNFALLRASLSAGFLMS
**Result** 0.405

**Query** Form field: reported amyloid nucleation score of YHCSLQIFVLNSWMSSYKWS
**Result** 1.86

**Query** Form field: reported amyloid nucleation score of AGFSVVSRPLFVRQLPV
**Result** inactive

**Query** Form field: reported amyloid nucleation score of FYFNRHRHHNVCRYLIGHPC
**Result** inactive

**Query** Form field: reported amyloid nucleation score of YYVVGQPAASQK
**Result** inactive
